For each entry below, report its TGI value.
system: OVCAR-8 ovarian; experiment: NCI tumour cell line growth inhibition, 48 h

Tell me its TGI given C=C(C)c1nc(C#N)c(N)o1 as the entry.
> 100 µM

Output TGI of O=C(CSc1ncnc2nc[nH]c12)c1ccccc1
> 100 µM

Please indicate TGI recorded for C=CC(C)c1cccc(C=O)c1O (stereo unspecified)
> 100 µM

Consider the compound CC(=O)OC(C[C@H](C)[C@@H]1CC[C@]2(C)C3=CCC4C(C)(C)C(=O)CC[C@]4(C)C3CCC12C)C1OC1(C)C (stereo partly specified) and give its recorded TGI.
> 100 µM

Recall and state the measured TGI for COc1cc(O)cc2oc(-c3ccc(O)cc3)cc(=O)c12 .
> 100 µM

Let me know recorded TGI for COC(=O)C(=O)C(C(=O)C(=O)Nc1ccc([N+](=O)[O-])cc1[N+](=O)[O-])c1nc2ccc(Cl)cc2[nH]c1=O (stereo unspecified) , thanks.
> 100 µM

Please give the documented TGI of CCn1nc(-c2ccc(C(=O)OC)cc2)nc2c(=O)n(C)c(=O)nc1-2
1.45 µM

Specify TGI for Cc1ccc(Nc2nc3ccccc3c(=O)n2N)cc1 and stop.
> 100 µM

Please give the documented TGI of O=C(Nc1sccc1S(=O)(=O)c1ccc(Cl)cc1)c1ccc(Cl)cc1
> 100 µM

Please list TGI recorded for the compound COc1ccc(-c2nc3c(-c4ccccc4)nc(-c4ccccc4)cn3c2-c2ccc(OC)cc2)cc1
> 100 µM

Annotate the compound COc1ccc(/C=c2/s/c(=C(\C#N)c3nc4ccccc4[nH]3)n(-c3ccccc3)c2=O)cc1 with its measured TGI.
51 µM

Determine its reported TGI: CCN(CC)c1ccc2cc3ccc(=[N+](CC)CC)cc-3oc2c1
1.84 µM

Recall and state the measured TGI for C(CCCCc1nnc(N2CCOCC2)o1)CCCc1nnc(N2CCOCC2)o1 .
> 100 µM

Tell us which TGI value is on record for CCN(CC)CCNC(=O)c1cc2cc(NC(=O)c3cc4cc(N)ccc4[nH]3)ccc2[nH]1
> 100 µM

Assign TGI to the following record: O=c1oc2c3ccc4ccccc4c3n(CCCN3CCCCC3)c2c2ccccc12
> 100 µM

Output TGI of COC(=O)C1=C(O)C(C(=O)OC)[C@]2(O)[C@@H](C(=O)OC)[C@H]1[C@H](C)[C@@H](c1ccccc1)[C@@H]2C(=O)OC (stereo partly specified)
> 100 µM

Query TGI for CCc1n[nH]c(=O)n1N1C(=O)C2CCCCC2C1=O (stereo unspecified)
> 100 µM

Could you please provide reported TGI for N#CC1=C(N)OC2=C(CCCc3ccccc32)C1c1ccc([N+](=O)[O-])cc1 (stereo unspecified) ? Thanks!
39 µM

Supply reported TGI belonging to this compound: CN1C[C@@H](c2ccc(Cl)cc2)[C@]2(NC(=S)N(c3ccc(F)c(Cl)c3)C2=O)[C@@]12C(=O)NC1C=CC(Cl)=C[C@H]12 (stereo partly specified)
8.6 µM

Quickly give me recorded TGI for NCCNC1=CC(=O)c2nc3ccccc3c3ccnc1c23
> 100 µM

For the compound O=C(O)c1cccc(SSc2cccc(C(=O)O)c2)c1 , report TGI.
> 100 µM
